molecular target: human αVβ6 (Homo sapiens, UniProt P06756+P18564); test: human αVβ6 HTRF binding assay; settings: alternatively SPA-based assay
Sequence (P06756 31-992 limits assumed): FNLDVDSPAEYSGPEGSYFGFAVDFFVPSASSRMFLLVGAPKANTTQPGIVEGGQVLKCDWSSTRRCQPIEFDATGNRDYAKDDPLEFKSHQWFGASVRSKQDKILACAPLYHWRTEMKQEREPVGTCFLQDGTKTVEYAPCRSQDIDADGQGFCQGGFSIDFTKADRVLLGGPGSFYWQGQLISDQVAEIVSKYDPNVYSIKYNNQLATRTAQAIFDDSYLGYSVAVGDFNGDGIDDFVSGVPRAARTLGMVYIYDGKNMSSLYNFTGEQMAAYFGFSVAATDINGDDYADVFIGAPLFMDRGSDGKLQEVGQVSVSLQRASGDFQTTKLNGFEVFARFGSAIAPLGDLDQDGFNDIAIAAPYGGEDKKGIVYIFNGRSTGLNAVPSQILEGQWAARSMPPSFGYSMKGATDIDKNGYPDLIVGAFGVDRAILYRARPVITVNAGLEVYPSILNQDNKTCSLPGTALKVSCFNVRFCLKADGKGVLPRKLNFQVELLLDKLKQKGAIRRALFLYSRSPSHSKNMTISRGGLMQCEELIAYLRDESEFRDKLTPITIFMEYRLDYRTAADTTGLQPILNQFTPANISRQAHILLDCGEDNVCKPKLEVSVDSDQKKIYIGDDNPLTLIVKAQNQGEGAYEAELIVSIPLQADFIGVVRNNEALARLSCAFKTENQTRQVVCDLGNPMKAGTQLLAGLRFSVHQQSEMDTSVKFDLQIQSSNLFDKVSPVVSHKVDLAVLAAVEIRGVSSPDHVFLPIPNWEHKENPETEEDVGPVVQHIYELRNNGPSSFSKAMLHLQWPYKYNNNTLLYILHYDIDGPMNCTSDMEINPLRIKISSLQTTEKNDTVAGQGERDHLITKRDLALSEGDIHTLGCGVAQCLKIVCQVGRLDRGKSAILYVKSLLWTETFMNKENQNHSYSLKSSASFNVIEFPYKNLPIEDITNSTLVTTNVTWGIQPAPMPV
Sequence (P18564 22-707 limits assumed): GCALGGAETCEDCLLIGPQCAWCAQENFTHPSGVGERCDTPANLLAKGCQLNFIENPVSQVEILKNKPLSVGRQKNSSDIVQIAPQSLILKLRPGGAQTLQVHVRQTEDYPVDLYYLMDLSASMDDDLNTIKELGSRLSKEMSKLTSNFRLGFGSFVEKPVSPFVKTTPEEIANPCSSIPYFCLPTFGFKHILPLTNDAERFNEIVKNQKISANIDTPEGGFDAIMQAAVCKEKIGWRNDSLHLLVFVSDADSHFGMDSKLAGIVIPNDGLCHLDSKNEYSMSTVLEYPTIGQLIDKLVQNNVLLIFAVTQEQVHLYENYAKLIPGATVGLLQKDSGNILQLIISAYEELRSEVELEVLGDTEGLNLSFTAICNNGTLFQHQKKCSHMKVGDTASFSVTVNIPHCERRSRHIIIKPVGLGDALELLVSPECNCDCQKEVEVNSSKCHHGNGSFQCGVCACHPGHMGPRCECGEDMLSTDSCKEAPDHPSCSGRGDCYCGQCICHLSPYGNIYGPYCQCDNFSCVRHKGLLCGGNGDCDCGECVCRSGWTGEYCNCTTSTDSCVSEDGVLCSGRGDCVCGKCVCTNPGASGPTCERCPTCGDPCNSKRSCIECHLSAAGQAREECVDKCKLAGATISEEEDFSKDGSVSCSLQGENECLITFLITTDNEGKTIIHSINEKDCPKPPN
Counter-ions that a name gives are not always drawn.
Reported values of IC50 for individual entries
Put down the number, then write its unit next to it.

Reported IC50 for Cc1cc(C)c(S(=O)(=O)N[C@@H](CN2CC(CCCc3ccc4c(n3)NCCC4)C2=O)C(=O)O)c(C)c1 (single isomer, unassigned) [Example 185] was 18 nM

Reported IC50 for Cc1ncc(C(CC(=O)O)N2CC(OCCCc3ccc4c(n3)NCCC4)C2)cn1 (stereo not shown) [Example 130, TFA] was 8.2 nM

====

molecular target: human αVβ6 (Homo sapiens, UniProt P06756+P18564); test: human αVβ6 HTRF binding assay; settings: alternatively SPA-based assay
Reported values of pIC50 for individual entries
Note: pIC50 values are expressed as the negative base-10 logarithm of concentration in M.

{"MOLECULE": "Cc1cc(C)c(S(=O)(=O)N[C@@H](CNC(=O)C2CN(CCc3ccc4c(n3)NCCC4)C2)C(=O)O)c(C)c1", "TEST_SYSTEM": "human αVβ6 (Homo sapiens, UniProt P06756+P18564)", "pIC50": 9.12}
{"MOLECULE": "O=C(O)CC(c1cnc2ccccc2c1)C1CN(CCCCc2ccc3c(n2)NCCC3)C1 (stereo not shown)", "TEST_SYSTEM": "human αVβ6 (Homo sapiens, UniProt P06756+P18564)", "pIC50": 8.00}
{"MOLECULE": "COc1ccc([C@H](CC(=O)O)NC2CN(CCCc3ccc4c(n3)NCCC4)C2)cn1", "TEST_SYSTEM": "human αVβ6 (Homo sapiens, UniProt P06756+P18564)", "pIC50": 9.30}

Reported pIC50 for "COc1ccc([C@H](CC(=O)O)NC(=O)N2CC(CCc3ccc4c(n3)NCCC4)C2)cc1F" was 8.65

====

target: human αVβ6 (Homo sapiens, UniProt P06756+P18564); test: human αVβ6 HTRF binding assay; settings: alternatively SPA-based assay
VALUE_KIND: pIC50
Note: pIC50 values are expressed as the negative base-10 logarithm of concentration in M.

{"MOLECULE": "COc1ccc([C@H](CC(=O)O)NC(=O)C2CC(CCC3CCc4cccnc4N3)C2)cn1 (some centres unmarked)", "pIC50": 9.03}
{"MOLECULE": "COc1ccc([C@H](CC(=O)O)N2CC(CCCCc3ccc4c(n3)NCCC4)C2)cn1", "pIC50": 8.44}
{"MOLECULE": "O=C(N[C@@H](CNC(=O)C1CN(CCc2ccc3c(n2)NCCC3)C1)C(=O)O)OCc1ccccc1", "pIC50": 9.40}
{"MOLECULE": "O=C(N[C@@H](CC(=O)N1CC(CCc2ccc3c(n2)NCCC3)C1)C(=O)O)OCc1cccc(F)c1", "pIC50": 6.53}

Reported pIC50 for COc1ccc([C@H](CC(=O)O)NC(=O)C2CC(C(Cc3ccc4c(n3)NCCC4)NS(=O)(=O)c3ccc(C)cc3)C2)cc1F (some centres unmarked) was 8.52

Reported pIC50 for COc1ccc([C@H](CC(=O)O)N2CC(C)(CCCCc3ccc4c(n3)NCCC4)C2=O)cn1 (single isomer, unassigned) [Example 177] was 6.35

====

target: human αVβ6 (Homo sapiens, UniProt P06756+P18564); assay: human αVβ6 HTRF binding assay; conditions: alternatively SPA-based assay
// boundary case: IC50 equal to 3 nM maps to condition not met; strictly smaller maps to condition met

Is 3 nM strictly greater than the compound's reported IC50? compound: "COc1ncc([C@H](CC(=O)O)N2CC(CCCCc3ccc4c(n3)NCCC4)C2)cn1" condition met

Is 3 nM strictly greater than the compound's reported IC50? compound: "COc1ccc([C@H](CC(=O)O)NC(=O)[C@H]2C[C@@H](CCc3ccc4c(n3)NCCC4)C2)cc1F" condition met

Is 3 nM strictly greater than the compound's reported IC50? compound: "COc1ccc([C@H](CC(=O)O)N2CC(F)(CCCCc3ccc4c(n3)NCCC4)C2)cc1F" condition met

Is 3 nM strictly greater than the compound's reported IC50? compound: "O=C(O)C[C@@H](c1ccc(F)c(F)c1)N1CC(CCCCc2ccc3c(n2)NCCC3)C1" condition met

Is 3 nM strictly greater than the compound's reported IC50? compound: O=C(O)C[C@@H](c1ccc(F)c(F)c1)N1CC(CCCCc2ccc3c(n2)NCCC3)C1=O (some centres unmarked) [Example 112] condition not met

====

Reported values of log10(IC50) for individual entries
molecular target: human αVβ6 (Homo sapiens, UniProt P06756+P18564); test: human αVβ6 HTRF binding assay; conditions: alternatively SPA-based assay
// do not treat as linear: log10 of IC50, unit nM

Reported log10(IC50) for "COC(=O)N(C1CC2(C1)CN(CCc1ccc3c(n1)NCCC3)C2)[C@@H](CC(=O)O)c1cc(Cl)cc(Cl)c1" was 1.93

Reported log10(IC50) for "Cc1ncc([C@H](CC(=O)O)NC(=O)N2CC(CCc3ccc4c(n3)NCCC4)C2)cn1" was 0.77

Reported log10(IC50) for O=C(O)CC(c1cnc2ccccc2c1)N1CC(OCCCc2ccc3c(n2)NCCC3)C1 (stereo not drawn) was 0.75

====

target: human αVβ6 (Homo sapiens, UniProt P06756+P18564); assay: human αVβ6 HTRF binding assay; settings: alternatively SPA-based assay
Structures can show the parent of a compound that is named as a salt.
VALUE_KIND: pIC50
Note: pIC50 values are expressed as the negative base-10 logarithm of concentration in M.

Past entries and their recorded results:
{"COMPOUND": "CC(C)(C)c1cc(Br)cc([C@H](CC(=O)O)NC(=O)C2CC3(C2)CN(CCc2ccc4c(n2)NCCC4)C3)c1", "pIC50": 8.70}
{"COMPOUND": "COc1ccc([C@H](CC(=O)O)N2CC(CCCc3ccc4c(n3)NCCC4)C2)cc1F", "pIC50": 8.70}
{"COMPOUND": "O=C(O)C[C@H](NC(=O)[C@H]1C[C@H](CCc2ccc3c(n2)NCCC3)C1)c1cncnc1", "pIC50": 8.77}
{"COMPOUND": "Cc1ncc([C@H](CC(=O)O)NC(=O)[C@H]2C[C@H](CCc3ccc4c(n3)NCCC4)C2)cn1", "pIC50": 8.82}

Reported pIC50 for COc1ccc(C(CC(=O)O)N2CC3(CC(Cc4ccc5c(n4)NCCC5)C3)C2)cn1 (stereo not drawn) was 8.62

Reported pIC50 for "O=C(N[C@@H](CCN1CC2(CC(CCc3ccc4c(n3)NCCC4)C2)C1)C(=O)O)OCc1ccccc1" was 8.70

Reported pIC50 for COc1ccc(C(CC(=O)O)N2CC(OCCCc3ccc4c(n3)NCCC4)C2)cc1F (stereo not drawn) [Example 135, TFA] was 8.31

Reported pIC50 for Cc1ncc(C(CC(=O)O)N2CC3(CC(CCc4ccc5c(n4)NCCC5)C3)C2)cn1 (stereo not drawn) was 8.48

Reported pIC50 for "O=C(O)C[C@@H](c1ccc(F)c(F)c1)N1CC(F)(CCCCc2ccc3c(n2)NCCC3)C1" was 8.59

Reported pIC50 for "O=C(O)C[C@H](NC(=O)C1(F)CN(CCc2ccc3c(n2)NCCC3)C1)c1ccc2c(c1)OCC2" was 9.03

Reported pIC50 for O=C(O)CCC1CC2(C1)CC(CCc1ccc3c(n1)NCCC3)C2 (stereo not drawn) was 7.03

Reported pIC50 for "Cc1ncc([C@H](CC(=O)O)N2CC(F)(CCCCc3ccc4c(n3)NCCC4)C2)cn1" was 8.48
